Values from PubChem BioAssay (NCI)

Listed compounds paired with reported TGI
- System: SN12C renal
- test-method-notes: NCI tumour cell line growth inhibition, 48 h

{"compound": "O=C(NCC(O)COc1ccccc1)c1ccccc1O (centres undefined)", "TGI": "> 100 µM"}

So what does the record say about TGI for O=C1OC(c2ccccc2)=N/C1=C\c1ccccc1 ?
> 100 µM

So what does the record say about TGI for Cc1nc2ccccc2c(=O)n1/N=C(\N=Nc1cc(Cl)ccc1Cl)c1ccc(N(C)C)cc1 ?
> 100 µM

So what does the record say about TGI for CNC(=O)c1sc(-n2cnc3cc(OC)c(OC)cc32)cc1OCc1ccccc1C(F)(F)F ?
> 25 µM
